- targetOrTestSystem: Human immunodeficiency virus type 1 reverse transcriptase (Human immunodeficiency virus 1, UniProt Q72547)
pIC50: −log10 of the molar value.
The entries below are paired with their reported pIC50.

smilesRecord: N#Cc1ccc2c(Oc3ccccc3OCCC(=O)N3CCCC3)cccc2c1
relationOperator: =
pIC50: 7.70

smilesRecord: C=CS(=O)(=O)c1cccc(CCOc2cc(Cl)ccc2Oc2cc(Cl)cc(C#N)c2)c1
relationOperator: =
pIC50: 5.05

smilesRecord: C=CC(=O)N(C)CCOc1ccccc1Oc1cc(Cl)cn2cc(C#N)cc12
relationOperator: =
pIC50: 7.70

smilesRecord: C=CC(=O)N(C)CCOc1ccccc1Oc1cccn2cc(C#N)cc12
relationOperator: >
pIC50: 8.00

smilesRecord: N#Cc1cc(Cl)cc(Oc2ccc(Cl)cc2OCCc2cccc(S(=O)(=O)F)c2)c1
relationOperator: =
pIC50: 6.82

smilesRecord: N#Cc1cc(Cl)cc(Oc2cc(CCNC(=O)CCl)ccc2Cl)c1
relationOperator: =
pIC50: 6.12

smilesRecord: N#Cc1cc2c(Oc3ccccc3OCCC(=O)NCC(F)F)cccn2c1
relationOperator: =
pIC50: 5.89

smilesRecord: CN(CCOc1ccc(Cl)c(Oc2cc(Cl)cc(C#N)c2)c1)C(=O)CCl
relationOperator: =
pIC50: 5.92

smilesRecord: CN(C)C(=O)CCOc1ccccc1Oc1cccc2cc(C#N)ccc12
relationOperator: =
pIC50: 7.70

smilesRecord: C=CC(=O)n1c(=O)n(CCOc2cc(Cl)ccc2Oc2cc(Cl)cc(C#N)c2)c2ccccc21
relationOperator: =
pIC50: 6.82

smilesRecord: C=CC(=O)NCCc1ccc(Cl)c(Oc2cc(Cl)cc(C#N)c2)c1
relationOperator: =
pIC50: 6.40

smilesRecord: C=CC(=O)N(C)CCOc1ccc(Cl)c(Oc2cccc3cc(C#N)ccc23)c1
relationOperator: >
pIC50: 8.00

smilesRecord: C=CC(=O)N(C)CCOc1ccc(Cl)c(Oc2cc(Cl)cc(C#N)c2)c1
relationOperator: =
pIC50: 6.12

smilesRecord: C=CC(=O)Nc1cccc(CCOc2cc(Cl)ccc2Oc2cc(Cl)cc(C#N)c2)c1
relationOperator: =
pIC50: 7.22

smilesRecord: N#Cc1cc(Cl)cc(Oc2ccc(Cl)cc2OCc2ccccc2)c1
relationOperator: =
pIC50: 5.89

smilesRecord: C=CC(=O)n1c(=O)n(CCOc2ccccc2Oc2cccc3cc(C#N)ccc23)c2ccccc21
relationOperator: >
pIC50: 8.30

smilesRecord: N#Cc1cc2c(Oc3ccccc3OCCC(=O)N3CCOCC3)cccn2c1
relationOperator: =
pIC50: 7.22

smilesRecord: C=CC(=O)N(C)CCOc1cc(Cl)ccc1Oc1cccn2cc(C#N)cc12
relationOperator: =
pIC50: 7.59

smilesRecord: N#Cc1cc(Cl)cc(Oc2ccc(Cl)cc2OCCc2ccccc2)c1
relationOperator: =
pIC50: 7.22

smilesRecord: C=CS(=O)(=O)CCc1ccc(Cl)c(Oc2cc(Cl)cc(C#N)c2)c1
relationOperator: =
pIC50: 4.00

smilesRecord: N#Cc1cc2c(Oc3ccccc3OCCC(=O)N3CCCC3)cccn2c1
relationOperator: =
pIC50: 7.70

smilesRecord: C=CC(=O)N(C)CCOc1cc(Cl)ccc1Oc1cccc2cc(C#N)ccc12
relationOperator: =
pIC50: 7.60
